- EXPERIMENT SUMMARY: Components of the Cytosolic LPS Sensing Pathway: Gene Identification via Genome-wide siRNA Screen;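 further: robust z of the log signal after scaling to non-targeting control siRNA wells of the plate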
- CONDITION SUMMARY: RAW264.7 macrophages, IL-1a HTRF, actives lie on both sides, screened at 100 nM (by protocol), cells primed 5 h with Pam3CSK4 first
Among all 53,000 sequences or so, about 3,700 (7%) were called active.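 How the source made its calls: active means gene knockdowns whose robust z-score for IL-1 alpha signal is at least 2 or at most -2, so actives lie on both sides; inactive means the rest.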 The entries come from a sample that favours actives as a whole.
Write down one outcome, taken from active, inactive

ITEM SEQUENCE	LABEL CLASS
CGCAAACAAACCUUAACAGTT against Maneal	active
CCACUAAUAGUCGUAGAAUTT against Dand5	inactive
CCAUGAGGAUGAUUACCUATT against Cnga2	inactive
GCAAUGGAACCACCUCUGATT against Zic5	inactive

Recorded test call requested for GCUAAGCGAAGAGUUUAACTT against Dlgap3
inactive

Please state the recorded outcome for this sequence: GGUCAAAUGCACCCGAUUATT against Hoxc10
active

// return assay outcome for CCCGAUUACUGGAGUUAAATT against Kbtbd7
active

For GCGUGUUCGCUUCUUGCUATT against Trub2 , what call appears in the results of this test?
inactive

How did this test come out for GGUAUGGAUCAAGGUUCUUTT against Gja6 ?
active

Assay outcome for CGAUCGGCGACCUUUUAGATT against Irak3 : what was it?
inactive

Status in this test for GGUAGUAGUAAGCCAUAAATT against Exoc8 ?
inactive

Which outcome did this test record for the sequence GCCGGAUGGCACAUUCGUATT against Cda ?
inactive

----------
Property: z-score; scope: individual sequences
- EXPERIMENT SUMMARY: Components of the Cytosolic LPS Sensing Pathway: Gene Identification via Genome-wide siRNA Screen;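 further: robust z of the log signal after scaling to non-targeting control siRNA wells of the plate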
- CONDITION SUMMARY: RAW264.7 macrophages, IL-1a HTRF, actives lie on both sides, screened at 100 nM (by protocol), cells primed 5 h with Pam3CSK4 first
- Description: Non-canonical inflammasome activation by cytosolic LPS is a critical component of the host response to Gram-negative bacterial infection, however we lack a comprehensive understanding of the cellular processes that control this pathway. […] Lipofectamine RNAiMAX Transfection Reagent ([…]; Invitrogen) was added in […] serum-free, antibiotic-free media to plate wells using a Thermo Scientific Matrix WellMate and Microplate Stacker. […] The plates were read on an EnVision plate reader (PerkinElmer). […]
Out of some 53,000 sequences screened, about 3,700 (7%) were called active. The sample as a whole holds a higher share of actives than the screen did.
Just the number.

Use the examples below as a reference point.
ITEM SEQUENCE	z-score
GGAUGACAUGUCAUCAAAGTT against Vmn1r89	-1.38
GGAGCUGUUGAAAGAAUAUTT against Relt	2.63
GGACUUUCGAGACAAGCUGTT against Barhl1	-1.21
GCUUUCCUAGACAAUCUAUTT against Arhgap19	0.0654

Given the entry GCCAAGACAUCAGAAGGAUTT against Nrxn1 , report its measured z-score.
0.202

Suppose we examine the sequence GGUUUGAAAUGAAACUUCATT against Nedd4l ; what z-score value has been reported?
-0.0699

// z-score lookup, key: GGCUUCAAGGACUUUACAATT against Mefv
1.62

Entry under review: GGGAAUUUGCUCCUGAAAGTT against Pcdhb6 . Reported z-score?
-0.936

# z-score lookup, item CCAUUUAUGGGUUUUCUCUTT against Taar7b
0.12

Entry under review: GCAUUUCGUCAGGGCAAAATT against Fuca1 . Reported z-score?
-0.515

I'd like to know its z-score. The sequence in question is GCGAGAUUCUUGCUUACUCTT against Slc66a2
-0.472

Look up z-score for this sequence: GCUCAAGUUAAUCUGUUGUTT against Ywhae
0.962
